Listed here are molecules together with their documented IC50.
biological target: Human autotaxin enzyme (Homo sapiens, UniProt Q13822); construct: purchased R&D System; assay: Evaluation of autotaxin inhibitor, 18:0 Lyso PC / choline assay (Test Example 2); type: biochemical; settings: human autotaxin enzyme, 18:0 Lyso PC substrate, choline assay, room temperature 2 hours; read-out: Inhibitor activity (IC50)
assay_endpoint: IC50

                                    molecule  assay_endpoint  value_reported
 0  COCCCc1nc(-c2ccc(Cl)cc2)cc(=O)n1CC(=O)NC1(C#N)CC1 [Compound I-0229]            IC50  100 to 1000 nM
 1  COC(=O)Nc1cc(Cl)ccc1-c1cc(=O)n(Cc2cccc(-c3nc(=O)o[nH]3)c2)c(C)n1 [Compound I-0379]            IC50         < 10 nM
 2  N#CCCNC(=O)Cn1c(CCCC(F)(F)F)nc(-c2ccc(Cl)cc2)cc1=O [Compound I-0137]            IC50    10 to 100 nM
 3  NC(=O)CNC(=O)c1cccc(Cn2c(CCCC(F)(F)F)nc(-c3ccc(Cl)cc3)cc2=O)c1 [Compound I-0168]            IC50  100 to 1000 nM
 4  CCCCCc1nc(-c2ccc(Cl)cc2)cc(=O)n1CC(=O)NC(C(=O)O)c1ccc(O)cc1 (stereo not drawn) [Compound I-0060]            IC50    10 to 100 nM
 5  COC(=O)Nc1cc(Cl)ccc1-c1cc(=O)n(CC(=O)N2CCC(C#N)CC2)c(C)n1 [Compound I-0433]            IC50    10 to 100 nM
 6  CC(C)(C)C(=O)Nc1cc(Cl)ccc1-c1cc(=O)n(CC(=O)N2CCC(C(=O)O)CC2)c(CCC(F)(F)F)n1 [Compound I-0367]            IC50    10 to 100 nM
 7  Cc1nc(C2=CCC(C(F)(F)F)CC2)cc(=O)n1CC(=O)NCC1(CO)COC1 (stereo not drawn) [Compound I-0268]            IC50       ≥ 1000 nM
 8  COC(=O)Nc1cc(C#N)ccc1-c1cc(=O)n(CC(=O)N(C)C(C)(C)C)c(C)n1 [Compound I-0374]            IC50    10 to 100 nM
 9  COC(=O)Nc1cc(Cl)ccc1-c1cc(=O)n(CC(=O)NC(C)(C)CF)c(C)n1 [Compound I-0415]            IC50         < 10 nM
10  O=C(Cn1cnc(-c2ccc(Cl)cc2)cc1=O)NCCCCCNC(=O)c1ccc2[nH]nnc2c1 [Compound I-0476]            IC50       ≥ 1000 nM
11  CCCCCc1nc(-c2ccc(Cl)cc2)cc(=O)n1CC(=O)Nc1ncc(C#N)s1 [Compound I-0083]            IC50       ≥ 1000 nM
12  CCCCCc1nc(-c2ccc(Cl)cc2)cc(=O)n1CC(=O)N1[C@H](C)COC[C@@H]1C [Compound I-0095]            IC50    10 to 100 nM
13  COC(=O)Nc1cc(Cl)ccc1-c1cc(=O)n(CC(=O)NCC2(CO)COC2)c(C)n1 [Compound I-0286]            IC50    10 to 100 nM
14  CCC(CO)(CO)NC(=O)Cn1c(CCCC(F)(F)F)nc(-c2ccc(Cl)cc2)cc1=O [Compound I-0144]            IC50    10 to 100 nM

Where do the numbers come from? From patent US10183949B2.
